- Tgt: PDGFRB (Homo sapiens)
- Construct: Kinases are expressed as either kinase domains or full length constructs; made in house
- Sequence (P09619 33-1106, species assumed): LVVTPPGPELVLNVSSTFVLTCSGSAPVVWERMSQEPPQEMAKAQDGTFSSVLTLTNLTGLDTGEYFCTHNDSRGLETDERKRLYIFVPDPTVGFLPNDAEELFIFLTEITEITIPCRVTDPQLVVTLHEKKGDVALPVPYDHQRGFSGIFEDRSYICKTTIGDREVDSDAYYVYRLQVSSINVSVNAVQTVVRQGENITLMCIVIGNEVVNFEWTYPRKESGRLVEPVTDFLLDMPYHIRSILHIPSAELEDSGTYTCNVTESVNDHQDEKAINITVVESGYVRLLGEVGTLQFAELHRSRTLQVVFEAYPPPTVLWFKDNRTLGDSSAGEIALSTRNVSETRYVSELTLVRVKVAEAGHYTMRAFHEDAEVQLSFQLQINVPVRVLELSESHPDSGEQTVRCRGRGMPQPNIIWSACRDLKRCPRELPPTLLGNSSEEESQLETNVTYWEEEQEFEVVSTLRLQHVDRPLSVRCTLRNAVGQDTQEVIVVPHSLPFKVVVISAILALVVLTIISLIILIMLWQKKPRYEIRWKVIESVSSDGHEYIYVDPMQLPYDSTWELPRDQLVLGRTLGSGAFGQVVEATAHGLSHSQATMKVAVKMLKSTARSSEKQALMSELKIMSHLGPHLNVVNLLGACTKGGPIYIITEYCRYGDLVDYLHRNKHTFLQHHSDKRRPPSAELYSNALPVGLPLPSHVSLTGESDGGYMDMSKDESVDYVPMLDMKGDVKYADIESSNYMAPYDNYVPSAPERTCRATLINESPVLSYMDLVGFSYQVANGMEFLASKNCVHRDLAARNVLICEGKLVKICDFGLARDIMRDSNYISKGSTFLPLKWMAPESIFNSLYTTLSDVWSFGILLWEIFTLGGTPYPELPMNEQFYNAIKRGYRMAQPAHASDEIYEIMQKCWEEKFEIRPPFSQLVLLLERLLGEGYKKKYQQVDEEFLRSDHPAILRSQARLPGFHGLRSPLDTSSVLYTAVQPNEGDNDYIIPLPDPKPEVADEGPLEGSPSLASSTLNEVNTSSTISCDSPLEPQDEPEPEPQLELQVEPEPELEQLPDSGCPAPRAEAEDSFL
- Method: Kinase inhibition assay (33P transfer), PDGFRB
- Assay type: biochemical
- Experimental Context: read-out: PDGFRB-1
Readout Name: IC50

Previously resolved entries follow.
Compound: Cc1cccc(Nc2ncnc(Nc3ccc4[nH]ccc4c3)n2)c1 [Compound 110]
IC50: < 1260 nM

Compound: COc1cc(Nc2ncnc(N3c4ccc(F)cc4CCC3C)n2)cc(OC)c1OC (stereo not drawn) [Compound 298]
IC50: < 940 nM

Compound: COc1cc(Nc2ncnc(-c3c(O)[nH]c4ccccc34)n2)cc(OC)c1OC [Compound 380]
IC50: < 1020 nM

# COc1cc(Nc2ncnc(-n3c(N[C@@H](C)c4ccccc4)nc4ccccc43)n2)cc(OC)c1OC [Compound 1033] with PDGFRB (Homo sapiens): IC50 is < 804 nM

GET /values?item= COc1ccc(Nc2ncnc(Nc3cc(-c4ccco4)n[nH]3)n2)cc1OC [Compound 337] &system= PDGFRB (Homo sapiens) returns IC50: 1050 to 6330 nM

* * *

# pIC50 values compiled below
- Tgt: Lck (Homo sapiens)
- Construct: Kinases are expressed as either kinase domains or full length constructs; made in house
- Sequence (P06239 whole entry, species assumed, the tested form may be a part): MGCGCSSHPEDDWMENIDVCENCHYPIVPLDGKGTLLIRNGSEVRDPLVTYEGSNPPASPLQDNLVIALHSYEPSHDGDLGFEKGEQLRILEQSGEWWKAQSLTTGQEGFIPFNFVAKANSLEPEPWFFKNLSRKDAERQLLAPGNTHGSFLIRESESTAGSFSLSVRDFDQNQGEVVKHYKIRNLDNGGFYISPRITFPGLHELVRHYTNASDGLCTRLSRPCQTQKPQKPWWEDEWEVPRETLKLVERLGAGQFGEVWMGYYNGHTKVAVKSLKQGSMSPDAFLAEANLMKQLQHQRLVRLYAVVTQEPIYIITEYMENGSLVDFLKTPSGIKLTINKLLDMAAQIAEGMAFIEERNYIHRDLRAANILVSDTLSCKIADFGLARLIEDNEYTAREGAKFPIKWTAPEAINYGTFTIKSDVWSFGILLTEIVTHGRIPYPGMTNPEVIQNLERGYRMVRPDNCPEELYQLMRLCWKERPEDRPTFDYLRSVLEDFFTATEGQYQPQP
- Method: Kinase inhibition assay (33P transfer), Lck
- Format: biochemical
- Experimental Context: read-out: Lck-1
pIC50: −log10 of the molar value.

Compound: CC(C)(C)OC(=O)NCc1cccc(Nc2ncnc(Nc3cc(-c4ccccc4)n[nH]3)n2)c1 [Compound 986]
pIC50: < 5.01

Compound: COc1cc(Nc2ncnc(-c3cccnc3Cl)n2)cc(OC)c1OC [Compound 1075]
pIC50: < 4.92

Compound: COc1cc(Nc2ncnc(N(C)c3ccc(Cl)cc3)n2)cc(OC)c1OC [Compound 616]
pIC50: > 6.00

Compound: COc1ccc(CNc2ncnc(Nc3ccc4c(cnn4Cc4ccccc4)c3)n2)cc1OC [Compound 732]
pIC50: < 5.02

Compound: COc1cc(Nc2ncnc(-n3c(NCc4ccc(Cl)cc4F)nc4ccccc43)n2)cc(OC)c1OC [Compound 606]
pIC50: 5.19 to 5.35

Compound: COc1cc(Nc2ncnc(-n3c(NCc4ccc(C(F)(F)F)cc4)nc4ccccc43)n2)cc(OC)c1OC [Compound 598]
pIC50: < 5.09

pIC50 in this record for COc1cc(Nc2ncnc(-n3c(N)nc4ccccc43)n2)ccc1OCCN1CCOCC1 [Compound 650] : 5.28 to 6.06

Summary for this compound, NC(=O)Cc1cccc(Nc2ncnc(-n3c(N)nc4ccccc43)n2)c1 [Compound 955] : pIC50 is 5.18 to 5.95

Lab note: CN(c1cccc(Cl)c1)c1ncnc(Nc2cccc(Br)c2)n1 [Compound 707] gave pIC50 of < 4.94

Value of pIC50 reported for the compound COC(=O)Cc1cccc(Nc2ncnc(-n3c(NCc4ccccn4)nc4ccccc43)n2)c1 [Compound 547] is < 5.02

Lab book: pIC50 of COc1cc(Nc2ncnc(Nc3cccc(CC(=O)O)c3)n2)cc(OC)c1OC [Compound 624] noted as 5.23 to 6.01

Reported pIC50 for COc1cc(Nc2ncnc(Nc3ccc(OCC(=O)Nc4ccccc4)cc3)n2)cc(OC)c1OC [Compound 623] was > 6.10

Lab note: measured pIC50 of COc1cc(Nc2ncnc(-c3cccnc3NC(C)C)n2)cc(OC)c1OC [Compound 1089] was > 6.00

The compound COc1cc(Nc2ncnc(Oc3ccc(OCc4ccccc4)cc3)n2)cc(OC)c1OC [Compound 530] showed pIC50 equal to < 5.01

COc1cc(Nc2ncnc(Nc3cccc(NC(=O)O[C@@H]4CCOC4)c3)n2)cc(OC)c1OC [Compound 694] has a reported pIC50 of 5.30 to 6.08

The compound identified as CCOC(=O)CNc1ncnc(N2CCCc3cc(C)ccc32)n1 [Compound 761] registered its pIC50 at < 4.86

For this compound ( O=c1[nH]c2ccccc2n1-c1ncnc(Nc2ccc3ccccc3c2)n1 [Compound 684] ), measured pIC50 is < 4.90

The reported value for O=c1[nH]c2ccccc2n1-c1ncnc(Nc2cnc3ccccc3c2)n1 [Compound 508] in terms of pIC50 is 5.17 to 5.95

Sure, the documented pIC50 for COc1cc(Nc2ncnc(-n3c(NCc4ccc(N(C)C)cc4)nc4ccccc43)n2)cc(OC)c1OC [Compound 593] is 5.34 to 6.12

* * *

- Tgt: Kdr (Homo sapiens)
- Construct: Kinases are expressed as either kinase domains or full length constructs; made in house
- Sequence (P35968 20-1356, species assumed): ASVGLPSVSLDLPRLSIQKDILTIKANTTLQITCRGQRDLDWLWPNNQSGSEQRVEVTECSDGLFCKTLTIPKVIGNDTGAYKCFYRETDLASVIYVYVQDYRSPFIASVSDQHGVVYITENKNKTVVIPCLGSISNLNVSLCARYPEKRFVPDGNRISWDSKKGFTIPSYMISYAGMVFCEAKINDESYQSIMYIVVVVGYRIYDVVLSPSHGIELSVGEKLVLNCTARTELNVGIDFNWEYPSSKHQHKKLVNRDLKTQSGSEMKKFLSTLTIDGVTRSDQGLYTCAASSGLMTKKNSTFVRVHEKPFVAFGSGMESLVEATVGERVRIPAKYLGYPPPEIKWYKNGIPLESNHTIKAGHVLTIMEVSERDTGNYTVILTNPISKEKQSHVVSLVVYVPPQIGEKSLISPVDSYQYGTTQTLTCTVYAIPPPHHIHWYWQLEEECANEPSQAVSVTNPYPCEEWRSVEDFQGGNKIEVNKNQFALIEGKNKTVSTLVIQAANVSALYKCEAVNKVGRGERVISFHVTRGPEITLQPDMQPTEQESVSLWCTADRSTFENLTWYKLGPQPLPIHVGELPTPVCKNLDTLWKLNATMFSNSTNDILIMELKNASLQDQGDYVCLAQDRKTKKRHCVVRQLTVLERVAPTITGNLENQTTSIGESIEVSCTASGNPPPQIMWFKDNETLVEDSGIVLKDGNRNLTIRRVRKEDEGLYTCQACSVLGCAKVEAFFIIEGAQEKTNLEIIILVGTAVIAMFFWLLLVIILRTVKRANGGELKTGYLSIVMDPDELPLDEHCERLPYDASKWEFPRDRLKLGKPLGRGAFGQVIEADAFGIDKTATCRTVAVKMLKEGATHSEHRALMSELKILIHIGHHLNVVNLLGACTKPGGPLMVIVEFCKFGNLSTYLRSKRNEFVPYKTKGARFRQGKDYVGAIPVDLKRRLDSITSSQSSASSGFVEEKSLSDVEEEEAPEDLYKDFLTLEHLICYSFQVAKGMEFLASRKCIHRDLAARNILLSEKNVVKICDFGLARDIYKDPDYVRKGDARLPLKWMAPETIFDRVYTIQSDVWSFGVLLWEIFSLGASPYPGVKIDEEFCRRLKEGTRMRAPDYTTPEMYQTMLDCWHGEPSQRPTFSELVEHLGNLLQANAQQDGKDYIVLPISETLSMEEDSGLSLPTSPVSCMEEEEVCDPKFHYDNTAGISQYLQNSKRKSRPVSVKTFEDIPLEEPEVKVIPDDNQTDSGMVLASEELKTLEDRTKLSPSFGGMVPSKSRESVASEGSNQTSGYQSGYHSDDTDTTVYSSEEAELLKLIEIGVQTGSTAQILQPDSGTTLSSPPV
- Method: Kinase inhibition assay (33P transfer), Kdr
- Format: biochemical
- Experimental Context: read-out: KDR-1
Catalogue of IC50 values

Smiles Entry: COc1cc(Nc2ncnc(Nc3cccc4ccccc34)n2)cc(OCCN2CCOCC2)c1OC
Tgt: Kdr (Homo sapiens)
Readout Name: IC50
Reported Result: 0.796 to 4.78 µM
--
Smiles Entry: N#Cc1cccc(Nc2ncnc(-n3c(=O)[nH]c4ccccc43)n2)c1
Tgt: Kdr (Homo sapiens)
Readout Name: IC50
Reported Result: 1.21 to 7.29 µM

Please turn your attention to the following entry.
Reported IC50 ( COc1cc(Nc2ncnc(Nc3cccc(CN4CCN(C)CC4)c3)n2)cc(OC)c1OC ) = > 9.67 µM

* * *

A collection of compounds and their measured pIC50
- Tgt: AKT (Homo sapiens, UniProt Q9Y243)
- Construct: Kinases are expressed as either kinase domains or full length constructs; made in house
- Sequence (Q9Y243 whole entry, the tested form may be a part): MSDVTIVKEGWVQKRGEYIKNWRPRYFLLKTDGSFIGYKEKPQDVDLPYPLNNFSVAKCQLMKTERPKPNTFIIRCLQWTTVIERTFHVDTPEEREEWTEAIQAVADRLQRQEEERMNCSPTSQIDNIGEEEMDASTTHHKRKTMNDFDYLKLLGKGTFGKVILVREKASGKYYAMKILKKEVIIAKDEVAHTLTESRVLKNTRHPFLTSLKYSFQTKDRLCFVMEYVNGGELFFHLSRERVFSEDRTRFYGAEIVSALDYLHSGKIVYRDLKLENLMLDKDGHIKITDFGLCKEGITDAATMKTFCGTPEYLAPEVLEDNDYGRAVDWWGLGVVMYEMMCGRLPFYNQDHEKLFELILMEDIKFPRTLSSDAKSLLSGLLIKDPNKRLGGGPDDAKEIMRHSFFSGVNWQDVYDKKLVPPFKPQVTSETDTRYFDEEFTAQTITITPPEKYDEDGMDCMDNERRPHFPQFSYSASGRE
- Method: Kinase inhibition assay (33P transfer), AKT
- Type: biochemical
- Experimental Context: Table 2, kinase inhibition class; read-out: AKT3-1
pIC50: −log10 of the molar value.

Compound: COc1ccc(Nc2ncnc(Nc3ccc(OC)c(OC)c3)n2)cc1OC [Compound 63]
Tgt: AKT (Homo sapiens, UniProt Q9Y243)
Reported Result: < 4.93

Recorded pIC50 (compound OCc1ccc(Nc2ncnc(Nc3cc(-c4ccco4)n[nH]3)n2)cc1 [Compound 430] ): 5.16 to 5.94

For c1ccc(Cn2ncc3cc(Nc4ncnc(Nc5ccc(N6CCCCC6)cc5)n4)ccc32)cc1 [Compound 735] the compound record lists pIC50 as 5.13 to 5.30

GET /value?item= Cc1ccc2c(c1)CCCN2c1ncnc(NCCN2CCOCC2)n1 [Compound 776] &field=pIC50 returns < 4.90

// recorded pIC50 for COc1cc(Nc2ncnc(Nc3ccc(C)c([N+](=O)[O-])c3)n2)cc(OC)c1OC [Compound 934] : < 4.96

COc1cc(Nc2ncnc(Nc3ccccc3)n2)cc(OC)c1OC [Compound 91] has a reported pIC50 of < 4.90

Please fill in: pIC50 reported for N#Cc1ccc(Nc2ncnc(-c3cccs3)n2)cc1 [Compound 356] = < 4.79

Input CCOC(=O)Cc1ccc(Nc2ncnc(-c3ccccc3)n2)cc1 [Compound 164] . Output pIC50: < 4.87

Record O=c1[nH]c2ccccc2n1-c1ncnc(Nc2ccc(F)c(Cl)c2)n1 [Compound 459] , field pIC50: < 4.90

* * *

- Tgt: AKT (Homo sapiens)
- Construct: Kinases are expressed as either kinase domains or full length constructs; made in house
- Method: Kinase inhibition assay (33P transfer), AKT
- Format: biochemical
- Experimental Context: Table 2, class symbols A-E; read-out: AKT3-1
pIC50: −log10 of the molar value.
Below: a set of entries, each annotated with reported pIC50.

Record excerpt, results attached:
Smiles Entry: Cc1ccc2c(c1)CCCN2c1ncnc(NCc2ccc(C(=O)O)cc2)n1
Reported Result: < 4.92
//
Smiles Entry: COC(=O)c1ccc(-c2cc(Nc3ncnc(Nc4cc(=O)n(-c5ccccc5)[nH]4)n3)[nH]n2)cc1
Reported Result: < 5.02
//
Smiles Entry: CN(c1ccc2c(cnn2Cc2ccccc2)c1)c1ncnc(Nc2cccc(Br)c2)n1
Reported Result: < 5.03
//
Smiles Entry: FC(F)(F)Oc1ccc(Nc2ncnc(Nc3ccc4c(cnn4Cc4ccccc4)c3)n2)cc1
Reported Result: 5.30 to 6.08
//
Smiles Entry: OCc1cccc(Nc2ncnc(-c3cccnc3NCc3ccccc3)n2)c1
Reported Result: 4.93 to 5.04

Continue with the next molecule.
// recorded pIC50 for Fc1ccc(CNc2ncccc2-c2ncnc(Nc3cccc(Cn4ccnc4)c3)n2)cc1 : < 5.00

* * *

- Tgt: Zap-70 (Homo sapiens, UniProt P43403)
- Construct: Kinases are expressed as either kinase domains or full length constructs; made in house
- Sequence (P43403 whole entry, species assumed, the tested form may be a part): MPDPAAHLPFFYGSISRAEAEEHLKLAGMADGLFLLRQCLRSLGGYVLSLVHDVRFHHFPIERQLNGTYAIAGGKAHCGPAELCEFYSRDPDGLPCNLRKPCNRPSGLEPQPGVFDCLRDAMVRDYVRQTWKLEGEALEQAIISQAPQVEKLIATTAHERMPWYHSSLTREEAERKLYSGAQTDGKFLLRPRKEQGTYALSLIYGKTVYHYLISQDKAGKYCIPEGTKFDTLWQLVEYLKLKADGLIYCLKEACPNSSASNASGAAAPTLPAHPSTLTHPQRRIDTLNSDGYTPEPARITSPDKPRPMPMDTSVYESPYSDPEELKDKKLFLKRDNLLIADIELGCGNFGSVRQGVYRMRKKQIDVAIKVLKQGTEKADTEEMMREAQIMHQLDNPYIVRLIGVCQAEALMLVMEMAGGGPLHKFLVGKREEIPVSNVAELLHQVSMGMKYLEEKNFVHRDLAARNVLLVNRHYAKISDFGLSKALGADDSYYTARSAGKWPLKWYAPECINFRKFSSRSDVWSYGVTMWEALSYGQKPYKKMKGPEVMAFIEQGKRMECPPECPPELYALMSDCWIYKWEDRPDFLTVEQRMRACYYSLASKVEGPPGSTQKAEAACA
- Method: Kinase inhibition assay (33P transfer), Zap-70
- Format: biochemical
- Experimental Context: Table 3, class symbols; read-out: Zap-1
We begin with a simple list: items and their reported IC50.

Use these answered entries as a reference point.
Compound: COC(=O)c1cccc(Nc2ncnc(-n3c(Cl)nc4ccccc43)n2)c1 [Compound 1066]
IC50: > 11.8 µM

Compound: COc1cccc(Nc2ncnc(Nc3ccc4c(cnn4Cc4ccccc4)c3)n2)c1 [Compound 904]
IC50: > 10.6 µM

Moving on to another compound below.
GET /values?item= COC(=O)c1ccc(-c2cc(Nc3ncnc(NCCN4CCOCC4)n3)[nH]n2)cc1 [Compound 808] &system= Zap-70 (Homo sapiens, UniProt P43403) returns IC50: > 10.6 µM
